- System: Adult and microfilariae B. malayi
- PROCEDURE DETAILS: In vitro parasite motility assay, B. malayi adult worms and microfilariae
- Format: cell-based
- RUN PARAMETERS: Brugia malayi, read-out: B. malayi Activity class
pIC50: −log10 of the molar value.
Exercise: for every item that follows, state its recorded pIC50.

>>> reported_result("O=S(=O)(Nc1cccc2cccnc12)c1cn[nH]c1")
"5.30 to 6.30"

pIC50 measured on "Cn1cc(S(=O)(=O)Nc2cccc3cccnc23)cn1" = 5.30 to 6.30
